- Assayed System: human OX2 receptor (Homo sapiens, UniProt O43614)
- Construct: expressed in transfected cells
- Sequence (O43614 1-444): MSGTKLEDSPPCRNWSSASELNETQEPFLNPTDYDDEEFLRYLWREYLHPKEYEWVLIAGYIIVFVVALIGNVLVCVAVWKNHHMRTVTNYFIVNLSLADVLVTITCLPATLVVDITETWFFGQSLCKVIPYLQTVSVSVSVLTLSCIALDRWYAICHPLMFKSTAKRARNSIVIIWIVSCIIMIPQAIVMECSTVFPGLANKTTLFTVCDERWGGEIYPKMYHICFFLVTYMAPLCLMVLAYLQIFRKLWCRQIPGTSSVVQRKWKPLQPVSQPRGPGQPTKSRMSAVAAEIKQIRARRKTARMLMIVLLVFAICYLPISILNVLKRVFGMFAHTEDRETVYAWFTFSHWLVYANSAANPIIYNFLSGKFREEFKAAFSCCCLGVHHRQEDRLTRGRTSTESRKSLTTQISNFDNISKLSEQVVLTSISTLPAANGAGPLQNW
- Procedure Text: Measurement of orexin type 2 receptor agonist activity (calcium fluorescence, Fluo-4, FDSS)
- Format: cell-based
- Cond: 3 uM test compound; CHO cells expressing human OX2 receptor; DMSO = 0%, 10 nM orexin A (human) = 100%
Readings of OX2R agonist activity (3 uM, %) for the listed molecules
Give the number; % is assumed, so skip it.

In the examples that follow, each entry is paired with its recorded OX2R agonist activity (3 uM, %).
INSERT INTO measurements (smiles_notation, assayed_system, reported_result) VALUES
  ('CCS(=O)(=O)N[C@@H]1CN2C(=O)N(c3noc4nc(C)cc(-c5c(F)cc(F)cc5F)c34)C[C@@H]2C1(F)F', 'human OX2 receptor (Homo sapiens, UniProt O43614)', 98),
  ('CS(=O)(=O)N[C@@H]1CN2C(=O)N(c3noc4cc(F)cc(-c5c(F)cccc5F)c34)C[C@@H]2C1(F)F', 'human OX2 receptor (Homo sapiens, UniProt O43614)', 98);

Request the reported OX2R agonist activity (3 uM, %) associated with `CCS(=O)(=O)N[C@@H]1CN2C(=O)N(c3noc4cc(OC(F)F)cc(-c5c(F)cccc5F)c34)CC[C@@H]2C1(F)F`
107

Request the reported OX2R agonist activity (3 uM, %) associated with `CCS(=O)(=O)N[C@@H]1CN2C(=O)N(c3noc4cc(COC)c(F)c(-c5c(F)cccc5F)c34)CC[C@@H]2C1(F)F`
104

Request the reported OX2R agonist activity (3 uM, %) associated with `Cc1cc2onc(-n3cc4n(c3=O)C[C@@H](NS(=O)(=O)N(C)C)C4(F)F)c2c(-c2c(F)cccc2F)n1`
105
